Assay: Ocular tissue concentrations (aqueous humor, vitreous humor, iris, retina, choroid, cornea) after topical ocular, subcutaneous and intravitreal administration
Type: in vivo, New Zealand White rabbits
Conditions: New Zealand White, rabbit, retina homogenate, other: intravitreal, 2.5 mg/eye, Retina homogenate, 72 hr, right eye, intravitreal 2.5 mg/eye (group 5), individual animals; read-out: Conc. (ng/mL) OD
assayMetric: concentration at 72 h (ng/mL)
Express it in ng/mL; write the number only.

Input: Which measured concentration at 72 h value corresponds to COC(=O)N[C@@H](Cc1ccccc1)C(=O)N[C@@H](Cc1ccc(NS(=O)(=O)O)cc1)c1csc(-c2cccs2)n1 [Compound 1] ?
Output: 9890

* * *

Test: Ocular tissue concentrations (aqueous humor, vitreous humor, iris, retina, choroid, cornea) after topical ocular, subcutaneous and intravitreal administration
Assay type: in vivo, New Zealand White rabbits
Conditions: New Zealand White, rabbit, vitreous humor, subcutaneous, 5 mg/kg, Group 3 subcutaneous 5 mg/kg; 4.0 hr; read-out: vitreous humor Average Conc.
assayMetric: concentration at 4 hr
Number plus unit, in that order.

Input: Which measured concentration at 4 hr value corresponds to COC(=O)N[C@@H](Cc1ccccc1)C(=O)N[C@@H](Cc1ccc(NS(=O)(=O)O)cc1)c1csc(-c2cccs2)n1 [Compound 1 free acid] ?
Output: 0.41 ng/g

* * *

Assay: Plasma concentrations and pharmacokinetic parameters after topical ocular, subcutaneous and intravitreal administration
Type: in vivo, New Zealand White rabbits
Settings: New Zealand White, rabbit, plasma, other: intravitreal, 2.5 mg/eye, intravitreal 2.5 mg/eye (~1.55 mg/kg), solution; 72.0 hr; read-out: plasma Average
Protocol: To measure the concentration of Compound 1 in plasma and ocular tissues following topical ocular, subcutaneous, and intravitreal administration, New Zealand White rabbits were administered Compound 1, and plasma and ocular samples were collected at pre-determined time points. […] Each blood sample was collected on Day 3 post dose at pre-determined time points from the rabbits via an ear vessel and placed into chilled polypropylene tubes containing sodium heparin as an anticoagulant. […]
Structures can show the parent of a compound that is named as a salt.
assayMetric: concentration at 72 hr (ng/mL)
Express it in ng/mL; write the number only.

Input: Which measured concentration at 72 hr value corresponds to COC(=O)N[C@@H](Cc1ccccc1)C(=O)N[C@@H](Cc1ccc(NS(=O)(=O)O)cc1)c1csc(-c2cccs2)n1 [Compound 1 sodium salt] ?
Output: 0.27

* * *

Test: Ocular tissue concentrations (aqueous humor, vitreous humor, iris, retina, choroid, cornea) after topical ocular, subcutaneous and intravitreal administration
Format: in vivo, New Zealand White rabbits
Conditions: New Zealand White, rabbit, iris homogenate, other: intravitreal, 2.5 mg/eye, Iris homogenate, 24 hr, OD; sodium salt, intravitreal 2.5 mg/eye, Group 4; read-out: Iris Conc. (ng/mL) OD
assayMetric: concentration at 24 h (ng/mL)
Express it in ng/mL; write the number only.

Input: Which measured concentration at 24 h value corresponds to COC(=O)N[C@@H](Cc1ccccc1)C(=O)N[C@@H](Cc1ccc(NS(=O)(=O)O)cc1)c1csc(-c2cccs2)n1 ?
Output: 6890

* * *

Assay: Ocular tissue concentrations (aqueous humor, vitreous humor, iris, retina, choroid, cornea) after topical ocular, subcutaneous and intravitreal administration
Format: in vivo, New Zealand White rabbits
Details: New Zealand White, rabbit, iris homogenate, other: intravitreal, 2.5 mg/eye, Iris homogenate, 72 hr, right eye, intravitreal 2.5 mg/eye (group 5), individual animals; read-out: Conc. (ng/mL) OD
assayMetric: concentration at 72 h (ng/mL)
Express it in ng/mL; write the number only.

Input: Which measured concentration at 72 h value corresponds to COC(=O)N[C@@H](Cc1ccccc1)C(=O)N[C@@H](Cc1ccc(NS(=O)(=O)O)cc1)c1csc(-c2cccs2)n1 [Compound 1] ?
Output: 279
